meta.source: ChEMBL document CHEMBL1961873

Give measured inhibition for each item. Keep answers brief.
target: Serine/threonine-protein kinase Sgk2 (Homo sapiens) (UniProt Q9HBY8);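 note: each value is a mean percent inhibition of SGK2 from the GSK PKIS kinase screen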
Sequence (whole entry): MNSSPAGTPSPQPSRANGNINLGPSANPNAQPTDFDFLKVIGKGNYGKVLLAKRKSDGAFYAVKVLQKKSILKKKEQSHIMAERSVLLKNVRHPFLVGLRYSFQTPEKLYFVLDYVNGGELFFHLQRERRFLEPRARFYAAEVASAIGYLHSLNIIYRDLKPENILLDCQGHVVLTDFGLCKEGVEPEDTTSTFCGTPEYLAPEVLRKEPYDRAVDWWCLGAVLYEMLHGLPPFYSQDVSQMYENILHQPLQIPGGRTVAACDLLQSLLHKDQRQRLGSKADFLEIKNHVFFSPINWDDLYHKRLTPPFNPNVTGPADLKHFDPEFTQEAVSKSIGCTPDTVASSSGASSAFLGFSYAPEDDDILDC
experimentalContext: at 0.1 µM
Give bare numbers, in %.

Guide cases for inhibition, answers given:
# compound, target, inhibition / %
measured = [
    ("COC(=O)Nc1nc2ccc(Oc3ccc(NC(=O)Nc4cccc(Cl)c4)cc3)cc2[nH]1", "Serine/threonine-protein kinase Sgk2 (Homo sapiens) (UniProt Q9HBY8)", 1.28),
    ("Cc1cccc2c1NC(=O)/C2=N\\Nc1ccc(S(N)(=O)=O)cc1", "Serine/threonine-protein kinase Sgk2 (Homo sapiens) (UniProt Q9HBY8)", 2.93),
    ("COc1cc2ncn(-c3cc(OCc4ccccc4C(F)(F)F)c(C(=O)N(C)C)s3)c2cc1OC", "Serine/threonine-protein kinase Sgk2 (Homo sapiens) (UniProt Q9HBY8)", 1.9),
    ("c1ccc(-c2nc3n(c2-c2ccc4c(c2)OCO4)CCC3)nc1", "Serine/threonine-protein kinase Sgk2 (Homo sapiens) (UniProt Q9HBY8)", 2.66),
    ("N#Cc1c(NC(=O)CN2CCOCC2)sc2c1CCCC2", "Serine/threonine-protein kinase Sgk2 (Homo sapiens) (UniProt Q9HBY8)", 2.3),
]

Fill in inhibition for each of the 6 compounds listed.
1. Fc1ccc(-c2cc(-c3c[nH]nc3-c3ccccn3)ccn2)cc1
2. CCCN(CCS(C)(=O)=O)Cc1ccc(-c2ccc3ncnc(Nc4ccc(OCc5cccc(F)c5)c(Cl)c4)c3c2)o1
3. c1cc(-c2cnn3nc(N4CCOCC4)ccc23)nc(NC2CC2)n1
4. COC(=O)Nc1nc2ccc(S(=O)(=O)c3ccc(NC(=O)Nc4cc(C(F)(F)F)ccc4F)cc3)cc2[nH]1
5. NC(=O)c1sc(-n2cnc3ccc(C(F)(F)F)cc32)cc1OCc1ccccc1Br
6. COC(=O)c1sc(-n2cnc3cc(OC)c(OC)cc32)cc1OCc1ccccc1C(F)(F)F

1. 3.86
2. 0.16
3. 9.24
4. 3.28
5. -0.91
6. 1.44

Lab note: each compound below needs its inhibition filled in.
1. CC1=C(C(=O)Nc2cc(Cl)c3[nH]ncc3c2)C(c2ccc(C(F)(F)F)cc2)CC(=O)N1 (centres undefined)
2. NS(=O)(=O)c1ccc(N/N=C2\C(=O)Nc3ccc4ncccc4c32)cc1
3. COc1ccc(-c2oc3ncnc(N)c3c2-c2ccc(NC(=O)Nc3cc(C(F)(F)F)ccc3F)cc2)cc1
4. c1ccc(COc2ccc(Nc3ncnc4ccc(-c5ccco5)cc34)cc2)cc1
5. CNC(=O)c1cc(-c2ccc(F)cc2)cc(-c2ccc(S(=O)(=O)N3CCCC3)cc2)c1N
6. CC(=O)NCc1cccc(C#Cc2cncnc2Nc2ccc(OCc3cccc(F)c3)c(Cl)c2)c1

4.31
-0.23
4.57
-1.79
2.87
4.36

Count: 7. Required value per item: inhibition.
1. CCn1cc(-c2ccnc3[nH]ccc23)c(-c2cccc(NC(=O)Nc3ccc(OCc4ccccc4)cc3)c2)n1
2. CN(C)CCOc1ccc(-c2nc(-c3ccncc3)c(-c3ccc4c(c3)CC/C4=N\O)[nH]2)cc1
3. COc1ccc(-c2cc(-c3c[nH]nc3-c3ccccn3)ccn2)cc1
4. Cc1ccc(O)cc1Nc1ccnc2cc(-c3ccccn3)ccc12
5. CCOc1ccc2c(-c3ccnc(Nc4cccc(C(F)(F)F)c4)n3)cnn2n1
6. Nc1ncc(-c2cccc(S(N)(=O)=O)c2)c2scc(-c3ccc(F)c(Cl)c3)c12
7. COc1cc(N2CCN(C(C)C)CC2)ccc1Nc1nc(Nc2ccc(F)cc2C(N)=O)c2cc[nH]c2n1

[-1.32, 2.44, 5.02, 4.28, 2.25, -0.69, 3.52]
